# tested.system: tyrosinase enzyme
# method.notes: Enzymatic antityrosinase activity, Dopachrom method with L-DOPA
# Type: biochemical, mushroom
# stated.conditions: L-DOPA substrate, pH 6.8, 25 °C
readout.name: IC50 on tyrosinase inhibitory activity (µg/mL)
Answers are plain numbers, in µg/mL.

Recorded results for 4 compounds are shown here.
| compound | IC50 on tyrosinase inhibitory activity / µg/mL |
| --- | --- |
| CC(C)=CCc1c(O)cc(-c2cc3ccc(O)cc3o2)cc1O | 128.67 |
| Oc1cc(O)cc(/C=C/c2ccc(O)c(O)c2)c1 | 149.73 |
| Oc1cc(O)cc(-c2cc3ccc(O)cc3o2)c1 | 47.34 |
| CC(=CCc1c(O)cc(-c2cc3ccc(O)cc3o2)cc1O)CO [Compound 1, ω-Hydroxymoracin C] | 109.64 |

// next entry
So, Oc1cc(O)cc(CCc2ccc(O)c(O)c2)c1 [Compound 4, 3,4, 3′, 5′-tetrahydroxybibenzyl] ? Its IC50 on tyrosinase inhibitory activity was 35.65
